Hello, the source for this data is paper PMC7251097, in case you need it.

This section presents compounds with their documented pIC50 values.
targetOfAssay: His6-AspH315–758 (human aspartate/asparagine-β-hydroxylase, AspH) (Homo sapiens, UniProt Q12797)
Construct: N-Terminally His6-tagged human AspH315–758 (His6-AspH315–758) was produced in E. coli BL21 (DE3) cells; made in house; host or cells: E. coli BL21 (DE3), pET-28a(+) vector
Sequence (Q12797 315-758): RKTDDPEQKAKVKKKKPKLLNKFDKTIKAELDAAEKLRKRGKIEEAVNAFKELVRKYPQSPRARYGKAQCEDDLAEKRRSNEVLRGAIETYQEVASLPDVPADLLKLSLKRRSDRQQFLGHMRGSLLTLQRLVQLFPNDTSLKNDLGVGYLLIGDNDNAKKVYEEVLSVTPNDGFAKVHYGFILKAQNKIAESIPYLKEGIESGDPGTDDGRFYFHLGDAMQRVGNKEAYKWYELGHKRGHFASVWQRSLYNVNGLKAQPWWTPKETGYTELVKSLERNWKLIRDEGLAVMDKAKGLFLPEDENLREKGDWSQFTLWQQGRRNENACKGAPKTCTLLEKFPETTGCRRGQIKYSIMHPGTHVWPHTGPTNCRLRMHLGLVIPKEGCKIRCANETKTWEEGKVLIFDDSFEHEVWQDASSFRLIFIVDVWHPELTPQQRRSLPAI
measurementDescription: SPE-MS AspH inhibition assay (LOPAC screen at fixed 20 μM and IC50 dose-response), hydroxylation of cyclic peptide hFX-CP101–119
Type: biochemical
particulars: 50 nM His6-AspH315–758, 1.0 μM hFX-CP101–119, 3 μM 2OG, 2 μM Fe(II), 50 mM HEPES pH 7.5, 20 °C; mean ± SD, n = 2 (2,4-PDCA n = 10); read-out: IC50
pIC50: −log10 of the molar value. Where a name gives a salt, the structure may show the parent alone.
propertyMeasured: pIC50

compound: O=C(O)C(=O)N[C@H](Cc1ccccc1)C(=O)O [NOFD, N-oxalyl-D-phenylalanine, reference compound]
observedResult: 4.81
--
compound: CCCc1nn(C)c2c(=O)[nH]c(-c3cc(S(=O)(=O)N4CCN(C)CC4)ccc3OCC)nc12 [sildenafil, reference compound]
observedResult: 5.61
--
compound: O=C(O)CNC(=O)C(=O)O [NOG, N-oxalylglycine, reference compound]
observedResult: 5.96
--
compound: CN(C)c1cc(NC(=O)CNC(C)(C)C)c(O)c2c1C[C@H]1C[C@H]3[C@H](N(C)C)C(O)=C(C(N)=O)C(=O)[C@@]3(O)C(O)=C1C2=O [Tigecycline, tigecycline, reference compound]
observedResult: 5.12
--
compound: Oc1cc2c(cc1O)CN(C(=S)NCCc1ccc(Cl)cc1)CCC2 [Capsazepine, capsazepine, reference compound]
observedResult: 5.47
--
compound: O=C(O)c1ccc(-n2nc(-c3ccccc3O)nc2-c2ccccc2O)cc1 [Deferasirox, reference compound]
observedResult: 5.68
--
compound: Cc1c(O)c(=O)ccn1C [Deferiprone, reference compound]
observedResult: 5.31
--
compound: N[C@@H](Cn1ccc(=O)c(O)c1)C(=O)O [L-Mimosine, reference compound]
observedResult: 5.30
--
compound: CC(=O)N(O)CCCCCNC(=O)CCC(=O)N(O)CCCCCNC(=O)CCC(=O)N(O)CCCCCN [Deferoxamine mesylate, reference compound]
observedResult: 5.50
--
compound: O=C(O)CCN(O)C(=O)CCCCCCCCC1CC1 [TC-E 5002, reference compound]
observedResult: 5.18
--
compound: CN(C)CCCNC(=O)c1ccc(-c2cc(O)c3ncccc3c2)cc1 [ML324, reference compound]
observedResult: 5.33
--
compound: O=c1c(O)c(-c2ccc(O)c(O)c2)oc2cc(O)cc(O)c12 [quercetin, reference compound]
observedResult: 6.62
--
compound: O=c1c(-n2ccnn2)c[nH]n1-c1cc(N2CCOCC2)ncn1 [Molidustat, molidustat, reference compound]
observedResult: 4.87
--
compound: Cc1ccc(-n2sc3ccccc3c2=O)cc1 [PBIT, reference compound]
observedResult: 6.85
--
compound: O=C(N/N=C/c1c(O)ccc2ccccc12)c1ccncc1 [AS-8351, reference compound]
observedResult: 5.51
